The measurements presented in this section are drawn from patent US20250346600A1.

experimental_target: Full length WRN protein (aa 2-1432) (Homo sapiens (Human))
Sequence (Q14191 2-1432): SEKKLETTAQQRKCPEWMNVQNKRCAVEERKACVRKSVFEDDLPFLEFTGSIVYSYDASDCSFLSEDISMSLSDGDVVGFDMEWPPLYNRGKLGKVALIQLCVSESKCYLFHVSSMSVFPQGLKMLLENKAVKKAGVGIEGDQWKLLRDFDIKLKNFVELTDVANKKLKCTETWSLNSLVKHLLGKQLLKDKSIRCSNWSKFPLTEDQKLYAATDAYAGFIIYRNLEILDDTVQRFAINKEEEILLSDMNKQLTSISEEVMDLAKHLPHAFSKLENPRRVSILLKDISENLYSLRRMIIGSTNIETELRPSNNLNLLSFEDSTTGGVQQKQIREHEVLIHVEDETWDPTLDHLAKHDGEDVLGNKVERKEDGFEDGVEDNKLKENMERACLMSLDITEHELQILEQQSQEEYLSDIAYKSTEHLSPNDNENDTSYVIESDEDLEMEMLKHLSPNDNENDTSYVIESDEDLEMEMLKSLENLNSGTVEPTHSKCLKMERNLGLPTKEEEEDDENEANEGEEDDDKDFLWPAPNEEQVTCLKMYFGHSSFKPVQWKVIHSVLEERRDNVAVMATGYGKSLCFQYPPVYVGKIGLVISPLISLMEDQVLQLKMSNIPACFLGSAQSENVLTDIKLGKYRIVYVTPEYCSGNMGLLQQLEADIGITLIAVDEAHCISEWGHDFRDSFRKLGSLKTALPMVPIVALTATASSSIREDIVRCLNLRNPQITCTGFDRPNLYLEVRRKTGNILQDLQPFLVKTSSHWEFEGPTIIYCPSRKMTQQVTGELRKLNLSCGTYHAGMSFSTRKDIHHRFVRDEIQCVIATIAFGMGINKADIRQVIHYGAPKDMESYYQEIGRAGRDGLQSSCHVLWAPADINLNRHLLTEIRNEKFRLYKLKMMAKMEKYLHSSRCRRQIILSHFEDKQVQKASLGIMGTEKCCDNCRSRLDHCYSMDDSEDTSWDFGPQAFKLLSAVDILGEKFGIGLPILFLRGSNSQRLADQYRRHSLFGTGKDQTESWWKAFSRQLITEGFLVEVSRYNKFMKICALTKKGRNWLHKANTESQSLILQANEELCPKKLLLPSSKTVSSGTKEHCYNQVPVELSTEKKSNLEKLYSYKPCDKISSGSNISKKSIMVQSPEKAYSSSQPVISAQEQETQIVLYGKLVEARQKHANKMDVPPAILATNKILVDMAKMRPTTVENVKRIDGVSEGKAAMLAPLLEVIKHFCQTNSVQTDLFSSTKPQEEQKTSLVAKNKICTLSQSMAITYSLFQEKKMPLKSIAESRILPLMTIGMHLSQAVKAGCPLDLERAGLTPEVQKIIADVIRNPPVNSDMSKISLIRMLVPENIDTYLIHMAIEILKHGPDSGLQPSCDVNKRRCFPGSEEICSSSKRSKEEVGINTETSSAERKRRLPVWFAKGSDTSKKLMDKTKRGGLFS
test_description: WRN ATPase ADP-Glo biochemical assay, Assay Format B (100 μM ATP)
measurement_parameters: 0.25 nM WRN, 100 nM C6.18 ssDNA, 60 min preincubation, read-out: ATPase ADPGlo AC50 (uM)- Assay Format B
Reported AC50 values are given for each entry in this list.

Would you please look over these solved cases?
compound: C=CC(=O)N1CCc2nn(-c3ccc(C(C)C)cc3)c3c2C(C1)N(C(=O)c1ccc(Br)cc1C(N)=O)CC3 (stereo not shown)
AC50: > 0.055 µM

compound: C=CC(=O)N1CCc2nc(-c3ccc(C(C)C)cc3)n3c2C(C1)N(C(=O)c1ccc(Br)c2[nH]cnc12)CC3 (stereo not shown)
AC50: 0.005 to 0.015 µM

compound: C=CC(=O)N1CCc2nn(-c3ccc(C4CC4)cc3O)c3c2C(C1)N(C(=O)c1cnc(SC(F)(F)F)c(F)c1N)CC3 (stereo not shown)
AC50: 0.005 to 0.015 µM

Read the next record carefully.
// recorded AC50 for C=CC(=O)N1CCc2nn(-c3ccc(C4CCC4)cc3O)c3c2C(C1)N(C(=O)c1ncc(Br)c2[nH]cnc12)CC3 (stereo not shown) : 0.0015 to 0.005 µM
